Value source: patent US7169759B1

# Target Or System: Human brain β-Secretase (Homo sapiens, UniProt P56817)
# Sequence (P56817 46-501): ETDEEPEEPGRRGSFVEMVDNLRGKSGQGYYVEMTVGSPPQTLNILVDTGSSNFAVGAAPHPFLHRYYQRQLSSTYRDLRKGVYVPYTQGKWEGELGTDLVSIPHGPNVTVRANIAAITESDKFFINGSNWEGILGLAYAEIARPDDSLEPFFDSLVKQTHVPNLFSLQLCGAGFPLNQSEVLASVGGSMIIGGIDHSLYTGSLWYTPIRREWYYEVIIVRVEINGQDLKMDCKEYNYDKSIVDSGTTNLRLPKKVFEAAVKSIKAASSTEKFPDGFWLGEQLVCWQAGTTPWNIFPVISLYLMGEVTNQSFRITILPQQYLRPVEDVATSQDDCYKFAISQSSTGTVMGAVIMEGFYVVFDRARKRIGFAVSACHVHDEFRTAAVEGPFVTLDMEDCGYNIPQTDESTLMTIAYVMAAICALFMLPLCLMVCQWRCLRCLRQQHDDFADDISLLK
*1 amine or outer side, *2 acyl side, *3 side chain or, on linkers, in order; H or OH if unused. Where a SMILES comes first, the peptide text is derived from it. [ ]: non-standard residue; d: D form. The star is where a group is joined. X1 = CC(C)CC(N[*:1])C(O)CC(=O)[*:2]; Phg = N[CH](C(=O)O)c1ccccc1; Boc = CC(C)(C)OC(=O)*
The reader will find reported IC50 values listed item by item below.

Problem: Give recorded IC50. CC(C)CC(NC(=O)C(NC(=O)C(NC(=O)OC(C)(C)C)C(C)C)c1ccccc1)C(O)CC(=O)NC(C(=O)NCc1ccc(C(=O)O)cc1)C(C)C (stereo not shown)
Result: 10 to 99 µM

Problem: Fill in IC50 for record CSCCC(NC(=O)C(NC(=O)OC(C)(C)C)C(C)C)C(=O)NC(CC(C)C)C(O)CC(=O)NC(C(=O)NCCc1ccc(O)c([N+](=O)[O-])c1)C(C)C (stereo not shown)
Result: < 10 µM

Problem: Please look at this compound and report its IC50: CSCCC(NC(=O)C(NC(=O)OC(C)(C)C)C(C)C)C(=O)NC(CC(C)C)C(O)CC(=O)NC(C(=O)NC(C(=O)O)c1ccccc1)C(C)C (stereo not shown) [Example 35] (Boc-VM[X1]V[Phg]-OH; configuration not given here)
Result: 10 to 99 µM

Problem: Tell me measured IC50 for CSCCC(NC(=O)C(NC(=O)OC(C)(C)C)C(C)C)C(=O)NC(CC(C)C)C(O)CC(=O)NC(C(=O)NC1CCC(C(=O)O)C(C(=O)O)C1)C(C)C (stereo not shown) please.
Result: < 10 µM
